MEASUREMENT_LABEL: melting point

These solved cases illustrate the format of a correct answer.
c1ccc(-c2ncc(-c3ncco3)cn2)cc1; 175 to 177 °C
c1ccc(-c2ncc(-c3nnc(-c4cccnc4)[nH]3)cn2)cc1; 322 to 333 °C
c1ccc(-c2ncc(-c3csc(-c4ccccc4)n3)cn2)cc1; 214.4 to 216.1 °C
Cl.c1ccc(-c2ncc(-c3cc[nH]n3)cn2)cc1; 264 to 273 °C

Quick one: melting point of COCCCNC(=O)c1csc(-c2cnc(-c3ccccc3)nc2)n1 ?
134 to 136 °C

I would be grateful if you could share the reported melting point for c1ccc(-c2ncc(-c3cnc(-c4ccccc4)o3)cn2)cc1 .
228 to 231 °C

Report melting point for CC(C)(C)OC(=O)N1CCC(n2nnc(-c3cnc(-c4ccccc4)nc3)n2)CC1 please.
178 to 180 °C

For c1ccc(-c2ncc(-c3nnc(-c4ccccc4)[nH]3)cn2)cc1 , what is its reported melting point?
280 to 282 °C
